These entries and their values trace back to patent US20200062856A1.

Biological target: T1, human TPBG-hFc protein (human, UniProt Q13641 32-355)
T1 construct: range 32-355; Expressed in HEK293 cells, purified on protein A; also called immunogen A; hFc tagged TPBG protein; not shown: human IgG Fc fragment of the pCpC vector
T1 sequence (looked up): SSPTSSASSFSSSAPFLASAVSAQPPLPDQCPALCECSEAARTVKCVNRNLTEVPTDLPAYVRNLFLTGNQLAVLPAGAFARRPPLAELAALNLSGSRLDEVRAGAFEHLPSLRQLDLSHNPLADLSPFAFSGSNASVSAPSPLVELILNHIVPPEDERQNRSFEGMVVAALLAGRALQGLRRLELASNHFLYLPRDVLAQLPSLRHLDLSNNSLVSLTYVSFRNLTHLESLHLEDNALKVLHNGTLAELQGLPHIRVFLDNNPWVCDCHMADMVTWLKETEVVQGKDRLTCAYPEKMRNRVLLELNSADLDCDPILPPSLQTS
Test: ELISA, coated human TPBG-hFc
Observed Property: EC50 (nM)
// note: answer is a bare numeric in nM

Requested read-out: EC50. Entry: Humanized antibody 28D4-7 (antibody, V domains shown, also called h28D4-7) VH: EVQLVESGGGLVKPGGSLRLSCAASGFTFSNYVMSWIRQAPGKGLEWVAEISTGGSHTYYSDTVTGRFTISRDNAKKSLYLQMNSLRAEDTAVYYCIMFYYGSSYSMDYWGQGTTVTVSS VL: DIQMTQSPSSLSASVGDRVTITCRASQDIRNYLNWYQQKPGKAPKLLIYHTSRLHSGVPSRFSGSGSGTDYTFTISSLQPEDIATYYCQQGDTLPLTFGQGTRLEIK 0.161

Also Chimeric antibody 12B12 (antibody, V domains shown, Mouse variable domains on human IgG1 heavy and human kappa light constant regions; also called c12B12; TPBG chimeric antibody 12B12) VH: DVQLVESGGGLVQPGGSRKLSCAASGFTFSNFGMHWVRQAPEKGLEWVAYISSGSTSFYYADTVKGRFTISRDNPKNTLFLQMTSLRSEDTAMYYCSRTNSLLRGFFDAWGAGTTVTVSS VL: DIVLTQSPASLAVSLGQRATISCRASQSVSSSSYTYLHWYQQKPGQPPKLLIKSASNLESGVPARFSGTGSGTDFTLNIHPVEEEDTATYYCQHSWEIPLTFGAGTKLELK , if possible. 0.137

Can you check Humanized antibody 12B12-13 (antibody, V domains shown, also called h12B12-13) VH: EVQLVESGGGLVQPGGSLRLSCAASGFTFSNFGMHWVRQAPGKGLEWVSYISSGSTSFYYADTVKGRFTISRDNAKNSLYLQMNSLRDEDTAVYYCSRTNSLLRGFFDAWGQGTTVTVSS VL: DIVLTQTPLSLSVTPGQPASISCRASQSVSSSSYTYLHWYLQKPGQPPQLLIKSASNLESGVPDRFSGSGSGTDFTLKISRVEAEDVGVYYCQHSWEIPLTFGQGTKLEIK next? 0.289
